Biological target: Recombinant ROCK1 (amino acids 1-477) (Homo sapiens, UniProt Q13464)
Construct: Recombinant ROCK1 (amino acids 1-477)
Sequence (Q13464 1-477): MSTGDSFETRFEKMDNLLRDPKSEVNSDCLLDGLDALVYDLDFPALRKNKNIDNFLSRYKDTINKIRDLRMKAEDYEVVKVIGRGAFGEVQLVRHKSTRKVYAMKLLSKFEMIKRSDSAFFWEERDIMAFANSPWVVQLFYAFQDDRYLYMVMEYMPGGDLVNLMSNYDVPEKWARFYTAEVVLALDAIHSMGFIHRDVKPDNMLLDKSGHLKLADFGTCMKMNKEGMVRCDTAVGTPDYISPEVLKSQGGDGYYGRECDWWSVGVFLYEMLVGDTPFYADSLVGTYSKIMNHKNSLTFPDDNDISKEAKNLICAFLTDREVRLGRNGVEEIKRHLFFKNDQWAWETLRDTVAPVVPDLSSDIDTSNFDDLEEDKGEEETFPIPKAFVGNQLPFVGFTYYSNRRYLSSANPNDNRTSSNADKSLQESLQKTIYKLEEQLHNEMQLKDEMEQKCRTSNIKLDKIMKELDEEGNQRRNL
Assay: ROCK inhibition assay, LANCE Ultra TR-FRET kinase assay
Assay type: biochemical
Settings: at Km of ATP (table title); method: 1 mM ATP, 50 nM ULight-CREBtide substrate, 1 hour, room temperature
pIC50: −log10 of the molar value.
Exercise: state measured pIC50 for each of the compounds provided.

Fill in the blank: the reported pIC50 of O=C(c1cn(CCO)c2nc(-c3c[nH]nc3Cl)ccc12)C1COc2ccc(F)cc2C1 (stereo not shown) is ____.
7.30 to 7.96

Fill in the blank: the reported pIC50 of COCCn1nc(C(=O)[C@@H]2COc3ccccc3O2)c2ccc(-c3cn[nH]c3)cc21 is ____.
7.30 to 7.96

Fill in the blank: the reported pIC50 of CC(C)(O)Cn1cc(C(=O)[C@@H]2COc3ccc(Cl)cc3C2)c2cnc(-c3c[nH]nc3Cl)cc21 [Compound 1-17] is ____.
> 8.00

Fill in the blank: the reported pIC50 of CC(O)Cn1cc(C(=O)[C@@H]2COc3ccc(Cl)cc3C2)c2ccc(-c3c[nH]nc3F)cc21 (stereo partly shown) is ____.
7.30 to 7.96

Fill in the blank: the reported pIC50 of O=C(c1nn(CCO)c2cc(-c3cn[nH]c3)ccc12)C1COc2ccccc2C1 (stereo not shown) is ____.
7.30 to 7.96

Fill in the blank: the reported pIC50 of C[C@@H](O)Cn1cc(C(=O)C2COc3ccc(F)cc3C2)c2cnc(-c3cn[nH]c3F)nc21 (stereo partly shown) is ____.
> 8.00

Next up:
Fill in the blank: the reported pIC50 of CC(O)Cn1cc(C(=O)C2COc3ccc(Cl)cc3C2)c2ccc(-c3c[nH]nc3Cl)cc21 (stereo not shown) is ____.
7.30 to 7.96

---

Target: Recombinant ROCK2 (amino acids 5-554) (Homo sapiens, UniProt O75116)
Construct: ROCK2 (amino acids 5-554)
Sequence (O75116 5-554): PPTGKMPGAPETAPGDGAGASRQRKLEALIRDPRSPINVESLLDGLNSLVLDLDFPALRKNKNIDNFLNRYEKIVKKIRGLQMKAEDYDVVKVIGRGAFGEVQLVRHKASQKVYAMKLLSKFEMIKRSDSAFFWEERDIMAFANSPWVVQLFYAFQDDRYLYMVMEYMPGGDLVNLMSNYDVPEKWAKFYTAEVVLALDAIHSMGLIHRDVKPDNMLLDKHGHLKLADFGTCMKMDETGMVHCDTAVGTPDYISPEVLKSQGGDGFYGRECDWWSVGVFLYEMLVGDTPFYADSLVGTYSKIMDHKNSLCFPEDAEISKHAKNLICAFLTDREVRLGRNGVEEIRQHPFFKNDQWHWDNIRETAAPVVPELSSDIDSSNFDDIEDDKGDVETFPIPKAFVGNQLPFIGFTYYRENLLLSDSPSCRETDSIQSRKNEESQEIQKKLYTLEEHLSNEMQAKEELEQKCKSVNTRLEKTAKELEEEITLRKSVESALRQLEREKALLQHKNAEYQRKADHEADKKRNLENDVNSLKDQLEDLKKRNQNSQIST
Assay: ROCK inhibition assay, LANCE Ultra TR-FRET kinase assay
Assay type: biochemical
Conditions: at Km of ATP (table title); method: 1 mM ATP, 50 nM ULight-CREBtide substrate, 1 hour, room temperature
measured-attribute: IC50

Observed IC50 on Recombinant ROCK2 (amino acids 5-554) (Homo sapiens, UniProt O75116) for COc1n[nH]cc1-c1ccc2c(C(=O)C3COc4ccc(F)cc4C3)nn(CCO)c2c1 (centres unmarked) , please.
< 10 nM

Observed IC50 on Recombinant ROCK2 (amino acids 5-554) (Homo sapiens, UniProt O75116) for COc1n[nH]cc1-c1ccc2c(C(=O)C3COc4ccc(Cl)cc4C3)cn(C[C@@H](C)O)c2c1 (some centres unmarked) , please.
11 to 50 nM

# batch: return IC50 for each of the 6 compounds below
1. O=C(c1cn(CCO)c2cc(-c3c[nH]c4ncccc34)ccc12)C1COc2ccccc2C1 (centres unmarked)
2. O=C(c1cn(CCO)c2cc(-c3cn[nH]c3)ccc12)C1COc2ccc(Cl)cc2O1 (centres unmarked)
3. C[C@H](O)Cn1cc(C(=O)C2COc3ccc(F)cc3C2)c2cnc(-c3c[nH]nc3Cl)cc21 (some centres unmarked)
4. COc1n[nH]cc1-c1ccc2c(C(=O)C3COc4ccc(F)cc4C3)cn(CCO)c2c1 (racemic)
5. COc1n[nH]cc1-c1ccc2c(C(=O)c3coc4ccccc34)nn(CCO)c2c1
6. C[C@@H](O)Cn1cc(C(=O)[C@@H]2COc3ccc(Cl)cc3C2)c2cnc(-c3cn[nH]c3Cl)cc21

11 to 50 nM
11 to 50 nM
< 10 nM
11 to 50 nM
51 to 500 nM
< 10 nM

---

Molecular target: Recombinant ROCK1 (amino acids 1-477) (Homo sapiens)
Construct: Recombinant ROCK1 (amino acids 1-477)
Experiment: ROCK inhibition assay, LANCE Ultra TR-FRET kinase assay
Format: biochemical
Conditions: at Km of ATP (table title); method: 1 mM ATP, 50 nM ULight-CREBtide substrate, 1 hour, room temperature
Method: Kinase IC50 was determined through an in vitro assay based on LANCE Ultra TR-FRET (Time-Resolved Fluorescence Resonance Energy Transfer) homogeneous technologies method (Perkin Elmer). […] Compound activities were measured by Envision and IC50s were calculated. […] The reaction was incubated for 1 hour, and the signal was read in Envision in TR-FRET mode (excitation at 320 nm and emission at 615/665 nm). […]
measured-attribute: IC50

Fill in the blank: the reported IC50 of O=C(c1cn(CCO)c2nc(-c3c[nH]nc3Cl)ccc12)C1COc2ccc(Cl)cc2C1 (stereo not drawn) is ____.
11 to 50 nM

# batch: return IC50 for each of the 2 compounds below
1. C[C@@H](O)Cn1cc(C(=O)C2COc3ccc(F)cc3C2)c2cnc(-c3c[nH]nc3Cl)cc21 (stereo partly drawn)
2. O=C(c1cn(CCO)c2cc(-c3cn[nH]c3)ccc12)C1COc2cc(F)ccc2O1 (stereo not drawn)

1. < 10 nM
2. 51 to 500 nM

# batch: return IC50 for each of the 7 compounds below
1. COc1n[nH]cc1-c1ccc2c(C(=O)C3COc4ccc(Cl)cc4C3)nn(C[C@@H](C)O)c2c1 (stereo partly drawn)
2. O=C(c1cn(CCO)c2cc(-c3cn[nH]c3)ccc12)C1COc2cc(Cl)c(Cl)cc2O1 (stereo not drawn)
3. COc1n[nH]cc1-c1ccc2c(C(=O)C3COc4ccc(Cl)cc4C3)nn(C[C@H](C)O)c2c1 (stereo partly drawn)
4. COc1n[nH]cc1-c1ccc2c(C(=O)[C@@H]3COc4ccc(Cl)cc4C3)cn(CC(C)O)c2c1 (stereo partly drawn)
5. O=C(c1cn(CCO)c2cc(-c3c[nH]nc3F)ccc12)C1COc2ccc(Cl)cc2C1 (stereo not drawn)
6. COc1ccc2c(c1)C[C@H](C(=O)c1cn(C[C@H](C)O)c3cc(-c4cn[nH]c4F)ncc13)CO2
7. CC(C)(O)Cn1cc(C(=O)[C@@H]2COc3ccc(Cl)cc3C2)c2cnc(-c3c[nH]nc3Cl)cc21 [Compound 1-19]

51 to 500 nM
51 to 500 nM
51 to 500 nM
11 to 50 nM
11 to 50 nM
< 10 nM
< 10 nM

---

Target: Recombinant ROCK2 (amino acids 5-554) (Homo sapiens)
Construct: ROCK2 (amino acids 5-554)
Experiment: ROCK inhibition assay, LANCE Ultra TR-FRET kinase assay
Assay type: biochemical
Settings: at Km of ATP (table title); method: 1 mM ATP, 50 nM ULight-CREBtide substrate, 1 hour, room temperature
measured-attribute: IC50

The cases that follow already have their IC50 on record.
Fill in the blank: the reported IC50 of COc1n[nH]cc1-c1ccc2c(C(=O)C3COc4ccc(Cl)cc4C3)nn(C[C@H](C)O)c2c1 (stereo partly shown) is ____.
11 to 50 nM

Fill in the blank: the reported IC50 of COc1[nH]ncc1-c1ncc2c(C(=O)C3COc4ccc(Cl)cc4C3)cn(CC(C)(C)O)c2n1 (stereo not shown) is ____.
< 10 nM

Fill in the blank: the reported IC50 of O=C(c1cn(CCO)c2cc(-c3cn[nH]c3)ccc12)C1COc2cc(Cl)ccc2O1 (stereo not shown) is ____.
11 to 50 nM

Fill in the blank: the reported IC50 of C[C@@H](O)Cn1cc(C(=O)C2COc3ccc(Cl)cc3C2)c2cnc(-c3cn[nH]c3F)nc21 (stereo partly shown) is ____.
< 10 nM

Fill in the blank: the reported IC50 of COc1[nH]ncc1-c1ncc2c(C(=O)C3COc4ccc(Cl)cc4C3)cn(C[C@H](C)O)c2n1 (stereo partly shown) is ____.
11 to 50 nM

# batch: return IC50 for each of the 2 compounds below
1. CC(C)(O)Cn1cc(C(=O)[C@@H]2COc3ccc(Cl)cc3C2)c2cnc(-c3cn[nH]c3F)cc21
2. COc1n[nH]cc1-c1ccc2c(C(=O)[C@@H]3COc4ccc(Cl)cc4C3)cn(CC(C)O)c2c1 (stereo partly shown)

1. < 10 nM
2. < 10 nM

---

Target: Recombinant ROCK1 (amino acids 1-477) (Homo sapiens)
Construct: Recombinant ROCK1 (amino acids 1-477)
Test: ROCK inhibition assay, LANCE Ultra TR-FRET kinase assay
Type: biochemical
Conditions: at Km of ATP (table title); method: 1 mM ATP, 50 nM ULight-CREBtide substrate, 1 hour, room temperature
measured-attribute: IC50

The cases that follow already have their IC50 on record.
Fill in the blank: the reported IC50 of COc1ccc2c(c1)CC(C(=O)c1cn(CCO)c3cc(-c4c[nH]nc4Cl)ncc13)CO2 (centres unmarked) is ____.
< 10 nM

Fill in the blank: the reported IC50 of COc1n[nH]cc1-c1ccc2c(C(=O)[C@H]3COc4ccc(Cl)cc4C3)cn(CCO)c2c1 (single isomer, unassigned) is ____.
> 501 nM

Fill in the blank: the reported IC50 of COc1ccc2c(c1)CC(C(=O)c1cn(C[C@H](C)O)c3cc(-c4cn[nH]c4F)ncc13)CO2 (some centres unmarked) is ____.
11 to 50 nM

Fill in the blank: the reported IC50 of CC(C)(O)Cn1cc(C(=O)C2COc3ccc(Cl)cc3C2)c2cnc(-c3cn[nH]c3F)nc21 (centres unmarked) is ____.
11 to 50 nM

Fill in the blank: the reported IC50 of COc1ccc2c(c1)CC(C(=O)c1cn(CCO)c3cc(-c4c[nH]nc4Cl)ccc13)CO2 (centres unmarked) is ____.
< 10 nM

# batch: return IC50 for each of the 3 compounds below
1. CC(C)(O)Cn1cc(C(=O)[C@@H]2COc3ccc(Cl)cc3C2)c2cnc(-c3c[nH]nc3Cl)cc21 [Compound 1-32]
2. C[C@H](O)Cn1cc(C(=O)[C@@H]2COc3ccc(Cl)cc3C2)c2cnc(-c3cn[nH]c3Cl)cc21 [Compound 1-11]
3. COc1[nH]ncc1-c1cc2c(cn1)c(C(=O)[C@H]1COc3ccc(Cl)cc3C1)cn2C[C@H](C)O

11 to 50 nM
11 to 50 nM
51 to 500 nM

# batch: return IC50 for each of the 4 compounds below
1. C[C@H](O)Cn1cc(C(=O)C2COc3ccc(F)cc3C2)c2cnc(-c3c[nH]nc3Cl)cc21 (some centres unmarked)
2. O=C(c1cn(CCO)c2cc(-c3c[nH]nc3Cl)cnc12)C1COc2ccc(Cl)cc2C1 (centres unmarked)
3. C[C@@H](O)Cn1cc(C(=O)[C@@H]2COc3ccc(F)cc3C2)c2cnc(-c3cn[nH]c3F)nc21 [Compound 1-50]
4. CC(C)c1n[nH]cc1-c1ccc2c(C(=O)C3COc4ccc(F)cc4C3)nn(CCO)c2c1 (centres unmarked)

["< 10 nM", "51 to 500 nM", "< 10 nM", "> 501 nM"]

# batch: return IC50 for each of the 8 compounds below
1. COc1ccc2c(c1)CC(C(=O)c1cn(CCO)c3cc(-c4cn[nH]c4F)ncc13)CO2 (centres unmarked)
2. O=C(c1cn(CCO)c2cc(-c3c[nH]nc3Cl)ccc12)C1COc2ccccc2C1 (centres unmarked)
3. COc1n[nH]cc1-c1ccc2c(C(=O)C3COc4ccc(Cl)cc4C3)nn(CC(C)O)c2c1 (centres unmarked)
4. CC(O)Cn1cc(C(=O)C2COc3ccc(F)cc3C2)c2cnc(-c3c[nH]nc3Cl)cc21 (centres unmarked)
5. COCCn1nc(C(=O)C2COc3ccccc3C2)c2ccc(-c3cn[nH]c3)cc21 (centres unmarked)
6. COc1n[nH]cc1-c1ccc2c(C(=O)C3Cc4ccccc4O3)nn(CCO)c2c1 (centres unmarked)
7. O=C(c1cn(CC2CC(O)C2)c2cc(-c3cn[nH]c3Cl)ncc12)C1COc2ccc(Cl)cc2C1 (centres unmarked)
8. C[C@@H](O)Cn1cc(C(=O)[C@@H]2COc3ccc(Cl)cc3C2)c2cnc(-c3cn[nH]c3Cl)cc21

1. < 10 nM
2. 11 to 50 nM
3. 51 to 500 nM
4. < 10 nM
5. 11 to 50 nM
6. 51 to 500 nM
7. 11 to 50 nM
8. 11 to 50 nM

# batch: return IC50 for each of the 6 compounds below
1. COc1n[nH]cc1-c1ccc2c(C(=O)C3COc4ccc(Cl)cc4C3)cn(C[C@@H](C)O)c2c1 (some centres unmarked)
2. COc1n[nH]cc1-c1cc2c(cn1)c(C(=O)C1COc3ccc(Cl)cc3C1)cn2CCO (centres unmarked)
3. C[C@@H](O)Cn1cc(C(=O)[C@@H]2COc3ccc(F)cc3C2)c2cnc(-c3cn[nH]c3F)nc21 [Compound 1-49]
4. COc1ccc2c(c1)CC(C(=O)c1cn(C[C@H](C)O)c3cc(-c4cn[nH]c4Cl)ncc13)CO2 (some centres unmarked)
5. COc1n[nH]cc1-c1ccc2c(C(=O)C3COc4ccc(Cl)cc4C3)cn(C[C@H](C)O)c2c1 (some centres unmarked)
6. C[C@@H](O)Cn1cc(C(=O)C2COc3ccc(Cl)cc3C2)c2cnc(-c3c[nH]nc3Cl)cc21 (some centres unmarked)

["11 to 50 nM", "> 501 nM", "< 10 nM", "< 10 nM", "51 to 500 nM", "11 to 50 nM"]

# batch: return IC50 for each of the 3 compounds below
1. COc1n[nH]cc1-c1ccc2c(C(=O)C3COc4ccc(Cl)cc4C3)nn(CC#N)c2c1 (centres unmarked)
2. COc1n[nH]cc1-c1ccc2c(C(=O)C3COc4ccc(F)cc4C3)cn(CCO)c2c1 (racemic)
3. COc1n[nH]cc1-c1ccc2c(C(=O)[C@@H]3COc4ccc(F)cc4C3)cn(CCO)c2c1 (single isomer, unassigned)

> 501 nM
11 to 50 nM
11 to 50 nM
